All figures here come from paper PMC6757278.

Documented IC50 across a set of compounds
# study system: Pri1 (full-length, 1 to 420) (Homo sapiens, UniProt P49642)
# Construct: full-length catalytic subunit alone (1-420), His6 tag cleaved by TEV protease, E. coli Rosetta2 (DE3), pRSFDuet-1
# Sequence (P49642 1-420): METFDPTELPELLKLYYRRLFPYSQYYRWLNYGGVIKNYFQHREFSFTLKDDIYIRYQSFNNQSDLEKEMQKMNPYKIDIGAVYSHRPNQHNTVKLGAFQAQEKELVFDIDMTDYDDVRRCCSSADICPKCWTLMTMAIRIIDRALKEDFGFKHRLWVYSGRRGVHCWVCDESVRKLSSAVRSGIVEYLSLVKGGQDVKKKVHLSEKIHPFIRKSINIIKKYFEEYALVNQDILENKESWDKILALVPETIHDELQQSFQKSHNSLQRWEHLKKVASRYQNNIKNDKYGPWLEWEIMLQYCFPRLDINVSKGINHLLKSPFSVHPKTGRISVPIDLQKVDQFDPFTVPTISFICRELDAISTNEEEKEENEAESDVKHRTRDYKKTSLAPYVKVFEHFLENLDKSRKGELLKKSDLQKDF
# assay name: fluorescence polarization competition against 6FAM-ATP
# assay setup: read-out: K1/2
Note: unit µM is implicit; provide only the numeric part.

Check out these entries, answers already filled in.
- Nc1nc(F)nc2c1ncn2[C@@H]1O[C@H](COP(=O)(O)OP(=O)(O)OP(=O)(O)O)[C@@H](O)[C@H]1O: 7.2
- Nc1nc(F)nc2c1ncn2[C@@H]1O[C@H](COP(=O)(O)OP(=O)(O)OP(=O)(O)O)[C@@H](O)[C@@H]1O: 1.1
- Nc1ncnc2c1ncn2[C@H]1C[C@H](O)[C@@H](COP(=O)(O)OP(=O)(O)OP(=O)(O)O)O1: 3.3
- Nc1ncnc2c1ncn2[C@@H]1O[C@H](COP(=O)(O)OP(=O)(O)OP(=O)(O)O)[C@@H](O)[C@H]1O: 7.5

Here's the next entry for you.
Asked: Returns the measured IC50 for the input compound. Input: `Nc1ncnc2c1ncn2[C@@H]1O[C@H](COP(=O)(O)OP(=O)(O)OP(=O)(O)O)[C@@H](O)[C@@H]1O`
Given back: 1.5
